testedOn: UniProt:P35372
Sequence (P35372 whole entry): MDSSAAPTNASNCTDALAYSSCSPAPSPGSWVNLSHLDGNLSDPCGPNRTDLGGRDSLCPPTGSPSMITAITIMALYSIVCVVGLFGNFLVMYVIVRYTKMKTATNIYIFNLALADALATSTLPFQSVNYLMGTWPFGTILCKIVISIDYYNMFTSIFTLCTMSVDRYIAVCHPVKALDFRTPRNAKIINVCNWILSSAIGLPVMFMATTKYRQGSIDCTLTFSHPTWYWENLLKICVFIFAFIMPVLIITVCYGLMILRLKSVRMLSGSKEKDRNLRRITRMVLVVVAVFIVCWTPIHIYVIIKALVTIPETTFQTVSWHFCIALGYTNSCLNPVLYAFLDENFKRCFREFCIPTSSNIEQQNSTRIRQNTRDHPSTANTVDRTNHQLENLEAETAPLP
pKi: −log10 of the molar value.
observationType: pKi

Given the entry Cc1nccc2c1C(C)(C)Nc1cc(Br)ccc1-2 , what pKi was observed with UniProt:P35372?
< 5.00

* * *

testedOn: Sigma non-opioid intracellular receptor 1 (Homo sapiens, UniProt Q99720)
Sequence (Q99720 whole entry): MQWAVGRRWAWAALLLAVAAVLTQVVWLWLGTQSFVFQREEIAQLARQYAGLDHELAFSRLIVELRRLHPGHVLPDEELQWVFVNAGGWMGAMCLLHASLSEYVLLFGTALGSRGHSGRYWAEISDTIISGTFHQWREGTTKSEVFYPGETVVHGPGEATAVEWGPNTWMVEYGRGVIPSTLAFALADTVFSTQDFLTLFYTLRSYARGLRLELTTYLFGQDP
protocolSummary: Binding affinity to sigma1 receptor (unknown origin)
observationType: pKi
Conceptually, pKi converts a concentration in mol/L into minus its log10.

Given the entry Cc1nccc2c1C(C)(C)Nc1cc(Br)ccc1-2 , what pKi was observed with Sigma non-opioid intracellular receptor 1 (Homo sapiens, UniProt Q99720)?
6.25

* * *

testedOn: D(1A) dopamine receptor (Homo sapiens, UniProt P21728)
protocolSummary: Binding affinity to dopamine D1 receptor (unknown origin)
pKi: −log10 of the molar value.
observationType: pKi

Using the record for Cc1nccc2c1C(C)(C)Nc1cc(Br)ccc1-2 , report its pKi.
< 5.00

* * *

testedOn: Histamine H2 receptor (Homo sapiens, UniProt P25021)
observationType: Ki

Given the entry Cc1nccc2c1C(C)(C)Nc1cc(Br)ccc1-2 , what Ki was observed with Histamine H2 receptor (Homo sapiens, UniProt P25021)?
> 10 µM

* * *

testedOn: Beta-1 adrenergic receptor (Homo sapiens)
Sequence (P08588 whole entry): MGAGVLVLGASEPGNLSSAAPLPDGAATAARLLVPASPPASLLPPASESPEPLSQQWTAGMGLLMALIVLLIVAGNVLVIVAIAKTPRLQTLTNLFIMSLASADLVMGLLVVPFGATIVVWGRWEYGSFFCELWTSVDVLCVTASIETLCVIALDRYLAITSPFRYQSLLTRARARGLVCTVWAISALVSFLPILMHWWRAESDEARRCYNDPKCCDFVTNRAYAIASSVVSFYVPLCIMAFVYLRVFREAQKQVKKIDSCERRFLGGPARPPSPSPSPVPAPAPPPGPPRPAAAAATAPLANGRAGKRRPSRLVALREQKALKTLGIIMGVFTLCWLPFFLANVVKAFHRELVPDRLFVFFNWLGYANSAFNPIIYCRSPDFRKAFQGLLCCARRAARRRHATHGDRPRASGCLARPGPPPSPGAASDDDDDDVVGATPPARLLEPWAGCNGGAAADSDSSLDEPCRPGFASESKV
pKi: −log10 of the molar value.
observationType: pKi

Given the entry Cc1nccc2c1C(C)(C)Nc1cc(Br)ccc1-2 , what pKi was observed with Beta-1 adrenergic receptor (Homo sapiens)?
< 5.00

* * *

testedOn: Muscarinic acetylcholine receptor M1 (Homo sapiens, UniProt P11229)
Sequence (P11229 whole entry): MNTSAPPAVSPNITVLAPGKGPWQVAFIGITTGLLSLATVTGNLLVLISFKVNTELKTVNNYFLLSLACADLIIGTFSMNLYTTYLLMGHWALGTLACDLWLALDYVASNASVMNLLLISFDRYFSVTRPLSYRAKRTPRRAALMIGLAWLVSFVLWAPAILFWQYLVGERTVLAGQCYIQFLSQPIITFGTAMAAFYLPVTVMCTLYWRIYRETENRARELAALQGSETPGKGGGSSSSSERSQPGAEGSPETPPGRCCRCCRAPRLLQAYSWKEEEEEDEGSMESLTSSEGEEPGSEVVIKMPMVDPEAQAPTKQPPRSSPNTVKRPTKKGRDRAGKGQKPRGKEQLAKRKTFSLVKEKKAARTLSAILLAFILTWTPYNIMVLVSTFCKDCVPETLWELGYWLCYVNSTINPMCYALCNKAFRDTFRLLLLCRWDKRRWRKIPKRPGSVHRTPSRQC
protocolSummary: Binding affinity to muscarinic acetylcholine receptor M1 (unknown origin)
pKi: −log10 of the molar value.
observationType: pKi

Using the record for Cc1nccc2c1C(C)(C)Nc1cc(Br)ccc1-2 , report its pKi.
< 5.00

* * *

testedOn: UniProt:P18089
observationType: Ki

Using the record for Cc1nccc2c1C(C)(C)Nc1cc(Br)ccc1-2 , report its Ki.
> 10 µM

* * *

testedOn: 5-hydroxytryptamine receptor 5A (Homo sapiens, UniProt P47898)
pKi: −log10 of the molar value.
observationType: pKi

Using the record for Cc1nccc2c1C(C)(C)Nc1cc(Br)ccc1-2 , report its pKi.
< 5.00

* * *

testedOn: UniProt P31645
observationType: Ki

Given the entry Cc1nccc2c1C(C)(C)Nc1cc(Br)ccc1-2 , what Ki was observed with UniProt P31645?
> 10 µM

* * *

testedOn: 5-hydroxytryptamine receptor 6 (Homo sapiens)
Sequence (P50406 whole entry): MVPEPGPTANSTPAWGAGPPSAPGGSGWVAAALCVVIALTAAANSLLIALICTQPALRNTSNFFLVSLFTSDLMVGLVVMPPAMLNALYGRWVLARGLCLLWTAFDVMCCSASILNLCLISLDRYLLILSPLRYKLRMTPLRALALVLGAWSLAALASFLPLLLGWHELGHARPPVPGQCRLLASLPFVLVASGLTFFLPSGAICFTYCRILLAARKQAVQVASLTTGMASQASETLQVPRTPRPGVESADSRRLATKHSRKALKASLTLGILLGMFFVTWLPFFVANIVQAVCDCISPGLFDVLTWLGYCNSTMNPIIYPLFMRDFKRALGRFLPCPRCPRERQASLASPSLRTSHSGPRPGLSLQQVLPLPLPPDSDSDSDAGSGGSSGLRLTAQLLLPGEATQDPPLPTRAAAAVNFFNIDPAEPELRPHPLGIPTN
observationType: Ki

Given the entry Cc1nccc2c1C(C)(C)Nc1cc(Br)ccc1-2 , what Ki was observed with 5-hydroxytryptamine receptor 6 (Homo sapiens)?
> 10 µM

* * *

testedOn: Histamine H1 receptor (Homo sapiens, UniProt P35367)
Sequence (P35367 whole entry): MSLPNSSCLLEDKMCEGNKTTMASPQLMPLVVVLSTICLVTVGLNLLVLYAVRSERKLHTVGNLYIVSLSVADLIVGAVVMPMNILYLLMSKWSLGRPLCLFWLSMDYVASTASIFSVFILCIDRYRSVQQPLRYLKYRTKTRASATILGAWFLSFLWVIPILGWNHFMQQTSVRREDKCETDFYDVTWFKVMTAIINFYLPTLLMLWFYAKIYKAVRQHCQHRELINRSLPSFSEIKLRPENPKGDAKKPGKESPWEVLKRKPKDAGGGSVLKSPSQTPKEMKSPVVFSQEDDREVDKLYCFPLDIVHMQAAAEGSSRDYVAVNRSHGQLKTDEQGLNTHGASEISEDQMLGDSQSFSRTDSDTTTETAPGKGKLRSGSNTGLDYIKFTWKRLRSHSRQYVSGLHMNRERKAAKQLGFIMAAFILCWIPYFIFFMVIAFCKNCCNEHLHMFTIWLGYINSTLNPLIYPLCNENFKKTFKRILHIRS
pKi: −log10 of the molar value.
observationType: pKi

Given the entry Cc1nccc2c1C(C)(C)Nc1cc(Br)ccc1-2 , what pKi was observed with Histamine H1 receptor (Homo sapiens, UniProt P35367)?
< 5.00

* * *

testedOn: Muscarinic acetylcholine receptor M4 (Homo sapiens, UniProt P08173)
Sequence (P08173 whole entry): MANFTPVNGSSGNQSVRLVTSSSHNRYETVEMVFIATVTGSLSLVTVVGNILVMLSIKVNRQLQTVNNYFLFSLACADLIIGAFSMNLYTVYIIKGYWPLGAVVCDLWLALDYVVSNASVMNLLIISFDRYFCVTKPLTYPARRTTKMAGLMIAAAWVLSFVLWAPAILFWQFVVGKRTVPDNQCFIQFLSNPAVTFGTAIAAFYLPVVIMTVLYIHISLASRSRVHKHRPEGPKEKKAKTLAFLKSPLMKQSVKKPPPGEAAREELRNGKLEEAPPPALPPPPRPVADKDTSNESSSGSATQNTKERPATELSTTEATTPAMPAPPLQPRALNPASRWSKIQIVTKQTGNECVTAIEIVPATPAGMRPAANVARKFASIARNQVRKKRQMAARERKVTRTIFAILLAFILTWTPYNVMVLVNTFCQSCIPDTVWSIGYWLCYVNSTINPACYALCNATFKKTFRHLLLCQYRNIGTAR
protocolSummary: Binding affinity to muscarinic acetylcholine receptor M4 (unknown origin)
observationType: Ki

Using the record for Cc1nccc2c1C(C)(C)Nc1cc(Br)ccc1-2 , report its Ki.
> 10 µM

* * *

testedOn: 5-hydroxytryptamine receptor 7 (Homo sapiens)
Sequence (P34969 whole entry): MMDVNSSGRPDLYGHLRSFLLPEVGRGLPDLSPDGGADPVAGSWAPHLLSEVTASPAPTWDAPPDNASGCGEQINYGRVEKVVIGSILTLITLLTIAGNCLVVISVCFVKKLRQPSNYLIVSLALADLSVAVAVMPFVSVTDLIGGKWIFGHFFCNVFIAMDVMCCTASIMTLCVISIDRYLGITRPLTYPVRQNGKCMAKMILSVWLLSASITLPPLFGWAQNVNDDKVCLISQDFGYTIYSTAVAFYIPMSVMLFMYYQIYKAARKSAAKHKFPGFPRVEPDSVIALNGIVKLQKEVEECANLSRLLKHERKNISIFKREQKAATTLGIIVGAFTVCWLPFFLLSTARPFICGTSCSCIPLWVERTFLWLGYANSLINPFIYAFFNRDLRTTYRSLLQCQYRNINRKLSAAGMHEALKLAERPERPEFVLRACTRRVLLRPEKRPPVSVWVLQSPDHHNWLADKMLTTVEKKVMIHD
protocolSummary: Binding affinity to 5HT7 receptor (unknown origin)
pKi: −log10 of the molar value.
observationType: pKi

Given the entry Cc1nccc2c1C(C)(C)Nc1cc(Br)ccc1-2 , what pKi was observed with 5-hydroxytryptamine receptor 7 (Homo sapiens)?
< 5.00

* * *

testedOn: 5-hydroxytryptamine receptor 7 (Homo sapiens)
protocolSummary: Binding affinity to 5HT7A receptor (unknown origin)
observationType: Ki

Given the entry Cc1nccc2c1C(C)(C)Nc1cc(Br)ccc1-2 , what Ki was observed with 5-hydroxytryptamine receptor 7 (Homo sapiens)?
> 10 µM

* * *

testedOn: D(3) dopamine receptor (Homo sapiens)
Sequence (P35462 whole entry): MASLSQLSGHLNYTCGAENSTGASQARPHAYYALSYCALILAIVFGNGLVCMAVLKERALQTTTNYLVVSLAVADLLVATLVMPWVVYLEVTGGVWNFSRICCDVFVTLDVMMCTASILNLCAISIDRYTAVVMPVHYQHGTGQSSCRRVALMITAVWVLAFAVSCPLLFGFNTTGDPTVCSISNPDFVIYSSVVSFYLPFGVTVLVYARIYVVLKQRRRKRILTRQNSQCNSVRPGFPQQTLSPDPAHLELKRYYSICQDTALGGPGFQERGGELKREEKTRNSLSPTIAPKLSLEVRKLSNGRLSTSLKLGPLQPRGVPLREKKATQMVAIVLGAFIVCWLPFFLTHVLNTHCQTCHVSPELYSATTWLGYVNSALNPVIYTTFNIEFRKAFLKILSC
observationType: Ki

Given the entry Cc1nccc2c1C(C)(C)Nc1cc(Br)ccc1-2 , what Ki was observed with D(3) dopamine receptor (Homo sapiens)?
> 10 µM

* * *

testedOn: UniProt P21917
pKi: −log10 of the molar value.
observationType: pKi

Using the record for Cc1nccc2c1C(C)(C)Nc1cc(Br)ccc1-2 , report its pKi.
< 5.00

* * *

testedOn: Delta-type opioid receptor (Homo sapiens, UniProt P41143)
Sequence (P41143 whole entry): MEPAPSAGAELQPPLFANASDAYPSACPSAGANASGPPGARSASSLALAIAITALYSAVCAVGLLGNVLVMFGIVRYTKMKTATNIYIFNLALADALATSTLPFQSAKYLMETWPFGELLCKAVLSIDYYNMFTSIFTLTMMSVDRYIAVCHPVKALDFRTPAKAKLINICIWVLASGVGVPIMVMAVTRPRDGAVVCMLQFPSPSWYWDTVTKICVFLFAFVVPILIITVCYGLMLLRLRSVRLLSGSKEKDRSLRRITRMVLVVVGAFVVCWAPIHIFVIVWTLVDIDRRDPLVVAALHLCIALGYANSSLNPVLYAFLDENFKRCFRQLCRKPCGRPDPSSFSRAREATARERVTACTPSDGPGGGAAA
protocolSummary: Binding affinity to DOR (unknown origin)
observationType: Ki

Using the record for Cc1nccc2c1C(C)(C)Nc1cc(Br)ccc1-2 , report its Ki.
> 10 µM

* * *

testedOn: D(1B) dopamine receptor (Homo sapiens, UniProt P21918)
pKi: −log10 of the molar value.
observationType: pKi

Given the entry Cc1nccc2c1C(C)(C)Nc1cc(Br)ccc1-2 , what pKi was observed with D(1B) dopamine receptor (Homo sapiens, UniProt P21918)?
< 5.00

* * *

testedOn: Muscarinic acetylcholine receptor M5 (Homo sapiens, UniProt P08912)
pKi: −log10 of the molar value.
observationType: pKi

Given the entry Cc1nccc2c1C(C)(C)Nc1cc(Br)ccc1-2 , what pKi was observed with Muscarinic acetylcholine receptor M5 (Homo sapiens, UniProt P08912)?
< 5.00

* * *

testedOn: 5-hydroxytryptamine receptor 1B (Homo sapiens, UniProt P28222)
Sequence (P28222 whole entry): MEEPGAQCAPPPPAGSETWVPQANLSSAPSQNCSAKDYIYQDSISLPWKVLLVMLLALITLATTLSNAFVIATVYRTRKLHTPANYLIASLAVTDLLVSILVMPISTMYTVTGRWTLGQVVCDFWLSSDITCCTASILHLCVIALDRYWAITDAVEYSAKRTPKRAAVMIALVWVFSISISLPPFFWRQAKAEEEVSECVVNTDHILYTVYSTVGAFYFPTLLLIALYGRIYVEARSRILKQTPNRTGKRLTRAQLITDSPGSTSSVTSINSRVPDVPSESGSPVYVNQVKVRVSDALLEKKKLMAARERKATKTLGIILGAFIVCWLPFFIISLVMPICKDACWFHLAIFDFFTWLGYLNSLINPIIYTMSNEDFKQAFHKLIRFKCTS
pKi: −log10 of the molar value.
observationType: pKi

Given the entry Cc1nccc2c1C(C)(C)Nc1cc(Br)ccc1-2 , what pKi was observed with 5-hydroxytryptamine receptor 1B (Homo sapiens, UniProt P28222)?
< 5.00

* * *

testedOn: Muscarinic acetylcholine receptor M3 (Homo sapiens)
observationType: Ki

Given the entry Cc1nccc2c1C(C)(C)Nc1cc(Br)ccc1-2 , what Ki was observed with Muscarinic acetylcholine receptor M3 (Homo sapiens)?
> 10 µM

* * *

testedOn: 5-hydroxytryptamine receptor 1A (Homo sapiens, UniProt P08908)
Sequence (P08908 whole entry): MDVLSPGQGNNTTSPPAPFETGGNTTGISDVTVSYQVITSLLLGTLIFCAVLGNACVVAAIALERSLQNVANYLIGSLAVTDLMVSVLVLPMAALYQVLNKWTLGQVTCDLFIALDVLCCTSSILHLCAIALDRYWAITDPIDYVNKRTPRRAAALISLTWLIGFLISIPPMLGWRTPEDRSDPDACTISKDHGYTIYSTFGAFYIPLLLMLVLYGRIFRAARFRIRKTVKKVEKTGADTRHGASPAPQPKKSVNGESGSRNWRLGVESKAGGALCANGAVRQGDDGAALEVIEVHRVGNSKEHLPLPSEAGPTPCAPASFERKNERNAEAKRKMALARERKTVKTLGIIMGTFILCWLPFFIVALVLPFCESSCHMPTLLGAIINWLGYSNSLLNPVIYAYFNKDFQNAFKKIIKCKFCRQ
protocolSummary: Binding affinity to 5HT1A receptor (unknown origin)
pKi: −log10 of the molar value.
observationType: pKi

Using the record for Cc1nccc2c1C(C)(C)Nc1cc(Br)ccc1-2 , report its pKi.
< 5.00

* * *

testedOn: Muscarinic acetylcholine receptor M2 (Homo sapiens, UniProt P08172)
Sequence (P08172 whole entry): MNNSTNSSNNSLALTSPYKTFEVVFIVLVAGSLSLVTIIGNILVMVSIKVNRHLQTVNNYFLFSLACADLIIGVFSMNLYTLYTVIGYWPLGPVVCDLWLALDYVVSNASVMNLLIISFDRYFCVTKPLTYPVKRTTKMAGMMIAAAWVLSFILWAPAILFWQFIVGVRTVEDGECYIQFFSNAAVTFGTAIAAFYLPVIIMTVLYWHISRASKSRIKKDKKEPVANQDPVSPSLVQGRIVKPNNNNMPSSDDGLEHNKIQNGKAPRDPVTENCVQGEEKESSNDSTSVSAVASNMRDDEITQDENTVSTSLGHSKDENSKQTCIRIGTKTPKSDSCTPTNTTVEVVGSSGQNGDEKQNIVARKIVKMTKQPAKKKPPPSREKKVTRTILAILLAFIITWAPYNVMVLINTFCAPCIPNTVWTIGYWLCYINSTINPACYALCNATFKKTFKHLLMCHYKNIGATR
observationType: Ki

Using the record for Cc1nccc2c1C(C)(C)Nc1cc(Br)ccc1-2 , report its Ki.
> 10 µM

* * *

testedOn: 5-hydroxytryptamine receptor 3A (Homo sapiens, UniProt P46098)
Sequence (P46098 whole entry): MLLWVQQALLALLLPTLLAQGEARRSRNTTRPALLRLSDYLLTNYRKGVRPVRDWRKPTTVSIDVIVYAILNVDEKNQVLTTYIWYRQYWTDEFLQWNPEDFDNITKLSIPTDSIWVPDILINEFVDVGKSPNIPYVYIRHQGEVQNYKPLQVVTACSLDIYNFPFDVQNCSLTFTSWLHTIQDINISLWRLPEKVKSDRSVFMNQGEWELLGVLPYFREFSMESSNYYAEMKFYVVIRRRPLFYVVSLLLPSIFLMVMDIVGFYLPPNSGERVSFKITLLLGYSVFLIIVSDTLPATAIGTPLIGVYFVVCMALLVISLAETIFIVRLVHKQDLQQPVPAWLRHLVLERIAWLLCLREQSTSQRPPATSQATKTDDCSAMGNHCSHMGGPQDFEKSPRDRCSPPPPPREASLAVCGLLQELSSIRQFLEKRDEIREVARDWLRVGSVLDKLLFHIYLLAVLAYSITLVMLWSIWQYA
pKi: −log10 of the molar value.
observationType: pKi

Using the record for Cc1nccc2c1C(C)(C)Nc1cc(Br)ccc1-2 , report its pKi.
< 5.00
